System: SU-DHL-6
Experiment: Cytotoxicity against human SU-DHL-6 cells measured after 3 days
Format: functional, cell-based
Conditions: SU-DHL-6, 72 h
assay.metric: IC50 (µM)
Express your answer in µM, writing the number without its unit.

Input line: // Input: C/C=C/Cn1cc(-c2cc(OC)c(C(=O)N3CCOCC3)cc2OC)c2cc(C)[nH]c2c1=O . Output its IC50 only.
Output line: 5

---

Assay: Cytotoxicity against human KMRC-20 cells measured after 8 days
Format: functional, cell-based
Details: KMRC-20, 192 h
assay.metric: IC50 (µM)
Express your answer in µM, writing the number without its unit.

Input line: // Input: C/C=C/Cn1cc(-c2ccc(C(C)(C)O)cc2OC)c2cc[nH]c2c1=O . Output its IC50 only.
Output line: 20

Input line: // Input: C/C=C/Cn1cc(-c2ccc(C(=O)N3CCOCC3)cc2)c2cc[nH]c2c1=O . Output its IC50 only.
Output line: 20

---

Tested on: NB1
Assay: Cytotoxicity against human NB1 cells measured after 8 days
Assay type: functional, cell-based
Details: NB1, 192 h
assay.metric: IC50 (µM)
Express your answer in µM, writing the number without its unit.

Input line: // Input: C/C=C/Cn1cc(-c2ccc(C(C)(C)O)cc2OC)c2cc[nH]c2c1=O . Output its IC50 only.
Output line: 10.2

Input line: // Input: C/C=C/Cn1cc(-c2ccc(C(=O)N3CCOCC3)cc2)c2cc[nH]c2c1=O . Output its IC50 only.
Output line: 20

---

Would you kindly list pIC50 for each of these compounds?
Assay: Cytotoxicity against human SC1 cells measured after 8 days
Type: functional, cell-based
Settings: SC-1, 192 h
Notebook: values listed as pIC50 are -log10 of the concentration (mol/L).

Input line: // Input: C/C=C/Cn1cc(-c2ccc(C(C)(C)O)cc2OC)c2cc[nH]c2c1=O . Output its pIC50 only.
Output line: 4.75

Input line: // Input: C/C=C/Cn1cc(-c2ccc(C(=O)N3CCOCC3)cc2)c2cc[nH]c2c1=O . Output its pIC50 only.
Output line: 4.70

---

Assay: Kinetic solubility of the compound
Format: physicochemical
Conditions: read-out: Kinetic_solubility
assay.metric: solubility kinetic

Input line: // Input: C/C=C/Cn1cc(-c2cc(OC)c(C(=O)N3CCOCC3)cc2OC)c2cc(C)[nH]c2c1=O . Output its solubility kinetic only.
Output line: 135 µM

---

Test system: SK-OV-3
Test: Cytotoxicity against human SK-OV-3 cells measured after 8 days
Format: functional, cell-based
Conditions: SK-OV-3, 192 h
Would you kindly list pIC50 for each of these compounds?
Notebook: values listed as pIC50 are -log10 of the concentration (mol/L).

Input line: // Input: C/C=C/Cn1cc(-c2ccc(C(=O)N3CCOCC3)cc2)c2cc[nH]c2c1=O . Output its pIC50 only.
Output line: 4.70

Input line: // Input: C/C=C/Cn1cc(-c2ccc(C(C)(C)O)cc2OC)c2cc[nH]c2c1=O . Output its pIC50 only.
Output line: 4.70

---

System: RPMI-8226
Experiment: Cytotoxicity against human RPMI-8226 cells measured after 3 days
Type: functional, cell-based
Settings: RPMI-8226, 72 h
assay.metric: IC50 (µM)
Express your answer in µM, writing the number without its unit.

Input line: // Input: C/C=C/Cn1cc(-c2cc(OC)c(C(=O)N3CCOCC3)cc2OC)c2cc(C)[nH]c2c1=O . Output its IC50 only.
Output line: 5

---

Would you kindly list IC50 for each of these compounds?
System: KARPAS-422
Test: Cytotoxicity against human KARPAS-422 cells measured after 8 days
Type: functional, cell-based
Details: KARPAS-422, 192 h
Express your answer in µM, writing the number without its unit.

Input line: // Input: C/C=C/Cn1cc(-c2cc(OC)c(C(=O)N3CCOCC3)cc2OC)c2cc(C)[nH]c2c1=O . Output its IC50 only.
Output line: 2

Input line: // Input: C/C=C/Cn1cc(-c2ccc(C(=O)N3CCOCC3)cc2)c2cc[nH]c2c1=O . Output its IC50 only.
Output line: 14.4

Input line: // Input: C/C=C/Cn1cc(-c2ccc(C(C)(C)O)cc2OC)c2cc[nH]c2c1=O . Output its IC50 only.
Output line: 20

---

Tested on: DB
Test: Cytotoxicity against human DB cells measured after 3 days
Format: functional, cell-based
Details: 72 h
assay.metric: IC50 (µM)
Express your answer in µM, writing the number without its unit.

Input line: // Input: C/C=C/Cn1cc(-c2cc(OC)c(C(=O)N3CCOCC3)cc2OC)c2cc(C)[nH]c2c1=O . Output its IC50 only.
Output line: 5

---

Test system: HMEC
Experiment: Cytotoxicity against HMEC cells measured after 8 days
Format: functional, cell-based
Details: Homo sapiens, 192 h
assay.metric: pIC50
Notebook: values listed as pIC50 are -log10 of the concentration (mol/L).

Input line: // Input: C/C=C/Cn1cc(-c2cc(OC)c(C(=O)N3CCOCC3)cc2OC)c2cc(C)[nH]c2c1=O . Output its pIC50 only.
Output line: 5.70

---

Tested on: SCLC-21H
Test: Cytotoxicity against human SCLC-21H cells measured after 8 days
Assay type: functional, cell-based
Settings: 192 h
assay.metric: pIC50
Notebook: values listed as pIC50 are -log10 of the concentration (mol/L).

Input line: Send back SCLC-21H pIC50 of C/C=C/Cn1cc(-c2ccc(C(C)(C)O)cc2OC)c2cc[nH]c2c1=O only.
Output line: 4.70

Input line: Send back SCLC-21H pIC50 of C/C=C/Cn1cc(-c2ccc(C(=O)N3CCOCC3)cc2)c2cc[nH]c2c1=O only.
Output line: 4.70

---

Would you kindly list IC50 for each of these molecules?
Assay: Cytotoxicity against human OUMS-23 cells measured after 8 days
Type: functional, cell-based
Details: OUMS-23, 192 h
Express your answer in µM, writing the number without its unit.

Input line: // Input: C/C=C/Cn1cc(-c2ccc(C(C)(C)O)cc2OC)c2cc[nH]c2c1=O . Output its IC50 only.
Output line: 20

Input line: // Input: C/C=C/Cn1cc(-c2ccc(C(=O)N3CCOCC3)cc2)c2cc[nH]c2c1=O . Output its IC50 only.
Output line: 20

Input line: // Input: C/C=C/Cn1cc(-c2cc(OC)c(C(=O)N3CCOCC3)cc2OC)c2cc(C)[nH]c2c1=O . Output its IC50 only.
Output line: 2

---

Would you kindly list IC50 for each of these molecules?
Experiment: Cytotoxicity against human OV7 cells measured after 8 days
Type: functional, cell-based
Details: OV7, 192 h
Express your answer in µM, writing the number without its unit.

Input line: // Input: C/C=C/Cn1cc(-c2ccc(C(=O)N3CCOCC3)cc2)c2cc[nH]c2c1=O . Output its IC50 only.
Output line: 20

Input line: // Input: C/C=C/Cn1cc(-c2ccc(C(C)(C)O)cc2OC)c2cc[nH]c2c1=O . Output its IC50 only.
Output line: 20

Input line: // Input: C/C=C/Cn1cc(-c2cc(OC)c(C(=O)N3CCOCC3)cc2OC)c2cc(C)[nH]c2c1=O . Output its IC50 only.
Output line: 2

---

Would you kindly list pIC50 for each of these compounds?
Assay: Cytotoxicity against human NB(TU)1 cells measured after 8 days
Format: functional, cell-based
Conditions: NB(TU)1, 192 h
Notebook: values listed as pIC50 are -log10 of the concentration (mol/L).

Input line: // Input: C/C=C/Cn1cc(-c2ccc(C(=O)N3CCOCC3)cc2)c2cc[nH]c2c1=O . Output its pIC50 only.
Output line: 4.70

Input line: // Input: C/C=C/Cn1cc(-c2ccc(C(C)(C)O)cc2OC)c2cc[nH]c2c1=O . Output its pIC50 only.
Output line: 4.70

---

Would you kindly list Kd for each of these molecules?
Target: Bromodomain-containing protein 7 (Homo sapiens)
Sequence (Q9NPI1 whole entry, the tested form may be a part): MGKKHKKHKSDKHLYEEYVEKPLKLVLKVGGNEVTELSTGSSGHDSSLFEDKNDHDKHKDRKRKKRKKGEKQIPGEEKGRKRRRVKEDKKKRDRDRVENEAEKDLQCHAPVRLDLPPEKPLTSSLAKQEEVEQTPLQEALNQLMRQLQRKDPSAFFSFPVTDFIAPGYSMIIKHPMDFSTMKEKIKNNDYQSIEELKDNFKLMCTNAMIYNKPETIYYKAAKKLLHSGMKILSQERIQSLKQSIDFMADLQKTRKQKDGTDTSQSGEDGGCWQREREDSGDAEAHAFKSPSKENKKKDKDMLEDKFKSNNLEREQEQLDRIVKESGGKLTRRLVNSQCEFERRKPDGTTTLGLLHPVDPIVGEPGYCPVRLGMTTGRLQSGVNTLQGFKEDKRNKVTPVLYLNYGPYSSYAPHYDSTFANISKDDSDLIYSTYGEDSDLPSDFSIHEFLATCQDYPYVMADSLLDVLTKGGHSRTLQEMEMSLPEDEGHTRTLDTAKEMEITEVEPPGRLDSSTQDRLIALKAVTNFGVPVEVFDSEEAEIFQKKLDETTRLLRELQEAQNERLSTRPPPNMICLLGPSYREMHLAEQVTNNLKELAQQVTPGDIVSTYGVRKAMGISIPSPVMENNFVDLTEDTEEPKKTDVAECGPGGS
Assay: Binding affinity to human partial length BRD7 (L125 to R254 residues) expressed in mammalian expression system by BROMOscan assay
Express your answer in nM, writing the number without its unit.

Input line: // Input: C/C=C/Cn1cc(-c2cc(OC)c(C(C)(C)O)cc2OC)c2cc(C)[nH]c2c1=O . Output its Kd only.
Output line: 520

Input line: // Input: C/C=C/Cn1cc(-c2cc(OC)c(C(=O)N3CCOCC3)cc2OC)c2cc(C)[nH]c2c1=O . Output its Kd only.
Output line: 110

Input line: // Input: C/C=C/Cn1cc(-c2ccc(C(C)(C)O)cc2OC)c2cc[nH]c2c1=O . Output its Kd only.
Output line: 340

Input line: // Input: C/C=C/Cn1cc(-c2ccc(C(=O)N3CCOCC3)cc2)c2cc[nH]c2c1=O . Output its Kd only.
Output line: 200

---

Test system: KP-N-YN
Test: Cytotoxicity against human KP-N-YN cells measured after 8 days
Type: functional, cell-based
Settings: 192 h
assay.metric: IC50

Input line: Send back KP-N-YN IC50 of C/C=C/Cn1cc(-c2ccc(C(=O)N3CCOCC3)cc2)c2cc[nH]c2c1=O only.
Output line: 20 µM

Input line: Send back KP-N-YN IC50 of C/C=C/Cn1cc(-c2ccc(C(C)(C)O)cc2OC)c2cc[nH]c2c1=O only.
Output line: 20 µM
